System: NCI/ADR-RES
assay: NCI tumour cell line growth inhibition, 48 h
Active and inactive are the calls of the source. Rule as the data show it: active = GI50 up to about 1.1 µM and inactive = higher.
In this section we review reported GI50 values for a set of molecules.

> print(dat)
                                   molecule  property       readout.value
1  COC(=O)CCc1c(Cc2ccc[nH]2)[nH]c(C(=O)OCc2ccccc2)c1C      GI50  20.6 µM (inactive)
2              Nc1ncnc2c1ncn2Cc1cccc(CCl)c1      GI50  18.5 µM (inactive)
3  CCOC(=O)CCC(NC(=O)Cc1ccc(Nc2nc3ccccc3nc2-c2cccs2)cc1)C(=O)OCC (stereo not given)      GI50  61.8 µM (inactive)

Report GI50 for OC(c1ccc(F)cc1)C(F)(F)c1nc(-c2ccccc2)no1 (stereo not given)
30.6 µM (inactive)

// fetch GI50 given entry COc1cc(C2OC(N)=C(C#N)C3=C2C(C)CCC3)cc(OC)c1OC (stereo not given)
> 100 µM (inactive)

Tell us which GI50 value is on record for O=C(O)c1ccccn1
> 100 µM (inactive)

---

Tested on: M14
assay: NCI tumour cell line growth inhibition, 48 h
Calls of active or inactive are those of the source. Rule as the data show it: active = GI50 up to about 1.1 µM and inactive = higher.
Recorded GI50 by entry

For orientation, consider the following solved cases.
> print(dat)
                                   compound        readout.value
1  Cc1c(/N=N/c2ccc(Cl)cc2)c(-c2ccccc2)n(C2OC(CO)C(O)C(O)C2O)c(=S)c1C#N (stereo unspecified)   17.4 µM (inactive)
2  COC(=O)NC(Cc1ccccc1)NC(C)=O (stereo unspecified)  > 100 µM (inactive)

Determine its reported GI50: COc1c2ccccc2c(OC)c2nc(C)ccc12
> 100 µM (inactive)

Determine from records and report GI50 for O=S(=O)(c1ccccc1)n1c2cc3cccnc3nc2c2cccnc21
> 100 µM (inactive)

Please give measured GI50 of the following entry: CC(=O)N(CN1C(=O)CCC1C(=O)O)c1ccccc1 (stereo unspecified)
> 54.5 µM (inactive)

Supply GI50 value. Item: O=C(c1cccnc1)N1N=C(c2ccc3c(c2)OCO3)CC1(O)c1cc(F)c(Cl)cc1Cl (stereo unspecified)
31.8 µM (inactive)

---

Entries annotated with measured GI50
Tested on: OVCAR-3
assay: NCI tumour cell line growth inhibition, 48 h
The source made the active and inactive calls. Rule as the data show it: active = GI50 up to about 1.1 µM and inactive = higher.

System OVCAR-3. Read-out GI50. Item C[C@H](N)C(=O)N[C@@H]1[C@H]2C(=C(O)C[C@@H](O)[C@@H]2O)C(=O)O[C@]1(C)C(Cl)Cl [BACTOBOLIN] . Report value.
0.34 µM (active)

Please tell me the measured GI50 for COC(=O)C1C2OC(C)(C)OC2CN1S(=O)(=O)c1ccc(C)cc1 (stereo unspecified) ; system: OVCAR-3.
> 100 µM (inactive)

Retrieve GI50 on OVCAR-3; query COC(=O)c1nsc(OC)c1Cl
> 100 µM (inactive)

Write down measured GI50 (OVCAR-3) for this compound. O=C1c2ccccc2C(=O)c2c(OCC3CO3)ccc(OCC3CO3)c21 (stereo unspecified)
3.4 µM (inactive)

Identify measured GI50 obtained with OVCAR-3 for COc1cc(/C=C/C(=O)c2sc(Nc3ccccc3)nc2C)ccc1O .
33.5 µM (inactive)

Identify measured GI50 obtained with OVCAR-3 for CCOC(=O)CCC(NC(=O)Cc1ccc(Nc2nc3ccccc3nc2-c2cccs2)cc1)C(=O)OCC (stereo unspecified) .
34 µM (inactive)
